# Lookup of reported growth inhibition keyed by entry
experiment: NCI Yeast Anticancer Drug Screen. Data for the mec2-1 strain (AID 157); conditions: S. cerevisiae mec2-1 strain, at 50.0 µM, stronger effect = higher value
About 79,000 compounds went through this panel and 15% of them were active in at least one assay; those are over-represented in the sample as a whole.
# number only, unit % dropped from output

1. [Cl][Co][Br].[NH-]CC[NH-].[NH-]CC[NH-] = 3.95
2. C[N+](C)(C)CC1CCC/C1=N/O (stereo not drawn) = 13.4
3. [CH3][Sb]1([CH3])([I])[CH2]CC[CH2]1 = -5.35
4. Nc1ccc([As](=O)(O)O)cc1 = 19.8
5. CC1OC(OC2C(O)CC(OC3C(O)CC(OC4CCC5(C)C(CCC6C5CCC5(C)C(C7=CC(=O)OC7)C(O)CC65O)C4)OC3C)OC2C)CC(O)C1O (stereo not drawn) = 10.6
6. CC(=O)OC1CC2(C)C(=CC1C1SCCS1)CCC1C2CCC2(C)C(OC(C)=O)CCC12 (stereo not drawn) = 3.2

# get_value(readout='growth inhibition', item= CC1(C(=N)N)CCOC1=O (stereo not drawn) ) 18.5

# get_value(readout='growth inhibition', item= CN(/N=C/c1ccnc2ccccc12)c1c([N+](=O)[O-])cc([N+](=O)[O-])cc1[N+](=O)[O-] ) -4.65

# get_value(readout='growth inhibition', item= O=P(Nc1ccccc1)(Oc1ccccc1)N(CCCl)CCCl (stereo not drawn) ) -10

# get_value(readout='growth inhibition', item= C[Si](C)(C)CS(=O)[O-].[C-]#[O+].[C-]#[O+].[Fe+6].[c-]1[c-][c-][cH-][c-]1 ) 8.8

# get_value(readout='growth inhibition', item= CCC(C(C)C)C1NC1C(C)C1CCC2C3CC=C4CC(OC(C)=O)CCC4(C)C3CCC12C (stereo not drawn) ) 99.2

# get_value(readout='growth inhibition', item= CCN(CC)P(=O)(N1CC1(C)C)N1CC1(C)C (stereo not drawn) ) 0.75

----------
experiment: NCI Yeast Anticancer Drug Screen. Data for the rad50 strain (AID 155);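 further: 0% = growth of vehicle-only cultures of the same strain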; conditions: S. cerevisiae rad50 strain growth inhibition; at 50.0 µM; stronger effect = higher value
The panel holds about 79,000 compounds, 15% with a hit somewhere; the sample as a whole holds those more often.
TEST READOUT: growth inhibition (%)
# number only, unit % dropped from output

1) COc1ccccc1CN1CCN(Cc2ccccc2OC)C1c1ccc(N(CCCl)CCCl)cc1 = -9.8
2) CC(Cl)CN(CC(C)Cl)c1ccc2c(c1)Cc1ccccc1-2 (stereo not given) = -20.8
3) CCC[As](=O)(O)CC[As](=O)(O)CCC = 15.8

# get_value(readout='growth inhibition', item= CC/C(=C(/CC)c1ccc(OP(=O)(Cl)N(CCCl)CCCl)cc1)c1ccc(OP(=O)(Cl)N(CCCl)CCCl)cc1 (stereo not given) ) -2.35

# get_value(readout='growth inhibition', item= NC(Cc1ccccc1)c1nn[nH]n1 (stereo not given) ) -10.2

# get_value(readout='growth inhibition', item= CN1CCCC(O)(C(=O)c2ccccc2)C1 (stereo not given) ) 4.15

# get_value(readout='growth inhibition', item= S=P(NCc1cccc(CNP(=S)(N2CC2)N2CC2)c1)(N1CC1)N1CC1 ) 24.4

# get_value(readout='growth inhibition', item= OCC(Br)CBr (stereo not given) ) 40.9

----------
# Lookup of reported growth inhibition keyed by entry
assay: NCI Yeast Anticancer Drug Screen. Data for the mec2-1 strain (AID 157); conditions: S. cerevisiae mec2-1 strain, at 50.0 µM, stronger effect = higher value
The panel holds about 79,000 compounds, 15% with a hit somewhere; the sample as a whole holds those more often.
# number only, unit % dropped from output

Sample answers from the record:
1. NC(CP(=O)(O)O)C(=O)O (centres undefined) = 5.7
2. CCOP(=O)(OCC)O/N=C(/C#N)c1ccccc1 = -6.4
3. O[C@H](c1ccccc1)[C@@H](c1ccccc1)N1CCCCC1 = -11.9

Consider now this further compound.
# get_value(readout='growth inhibition', item= CC(C)=CC1C(C(=O)OCc2cc3c(cc2Cl)OCO3)C1(C)C (centres undefined) ) 12.1

----------
assay: NCI Yeast Anticancer Drug Screen. Data for the sgs1 mgt1 strain (AID 161);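 further: 0% = growth of cultures given vehicle only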; conditions: S. cerevisiae sgs1 mgt1 strain, at 50.0 µM, stronger effect = higher value
About 79,000 compounds went through this panel and 15% of them were active in at least one assay; those are over-represented in the sample as a whole.
# Lookup of reported growth inhibition keyed by entry
# number only, unit % dropped from output

Sample answers from the record:
1) Clc1cccc(Cl)c1NC1=NCCS1 = 12.7
2) C[N+]1(C)C2CCC1CC(O)C2 (stereo not drawn) = 3.55
3) Cc1cccc(C)c1NC(=O)C(=O)C1C(=O)NC(=O)NC1=O = -6
4) Oc1ccc(Cl)c(Cl)c1 = -72.8
5) O=C(Nc1cccc(Cl)c1Cl)C(Cl)(Cl)Cl = 19.4
6) O=C(Nc1ccccc1F)C(Cl)(Cl)Cl = 9.3
7) CC(=O)O[C@H]1CC[C@@]2(C)[C@H](CC[C@@H]3[C@@H]2CC[C@]2(C)[C@@H](c4ccc(=O)oc4)C[C@H]4O[C@]342)C1 = 29.5
8) COc1ccc2c3c1OC1C(OC)(OC)CC4(C=C2)CN(C)CCC314 (stereo not drawn) = -20.4
9) CC(CCl)N1CCCCCC1 (stereo not drawn) = 8
10) CCN1/C(=C/C=C2\CCC(/C=C/c3sc4ccc(Cl)cc4[n+]3CC)=C2N(c2ccccc2)c2ccccc2)Sc2ccc(Cl)cc21 = 64.9

# get_value(readout='growth inhibition', item= NC(=O)C(N)C(F)c1ccccc1 (stereo not drawn) ) -16.4

# get_value(readout='growth inhibition', item= Clc1ccc(NC2=NCCS2)cc1Cl ) 41.4

# get_value(readout='growth inhibition', item= O=C(O)/C=C/C(=O)O.[Ni] ) -28.1

----------
# Lookup of reported growth inhibition keyed by entry
experiment: NCI Yeast Anticancer Drug Screen. Data for the sgs1 mgt1 strain (AID 161);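 further: 0% = growth of cultures given vehicle only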; details: S. cerevisiae sgs1 mgt1 strain, at 50.0 µM, stronger effect = higher value
This is part of a sample that, as a whole, favours compounds with a hit. Of some 79,000 tested, about 15% had one in any assay. Calls of active or inactive are those of the source. Rule as the data show it: active = growth inhibition above about 70%; inactive = the rest.

1) O=C(O)c1cc(Cl)nc(Cl)c1 = 2.05% (inactive)
2) CC(O)c1ccc(Br)cc1 (stereo unspecified) = 3.55% (inactive)

# get_value(readout='growth inhibition', item= CC[C@H]1CN2CCc3cc(OC)c(OC)cc3[C@@H]2C[C@@H]1C[C@H]1NCCc2c1[nH]c1ccc(O)cc21 ) -19.9% (inactive)

# get_value(readout='growth inhibition', item= CC(=O)CC(C)=O.CC(=O)CC(C)=O.[Co] ) -8% (inactive)

# get_value(readout='growth inhibition', item= O=C1C(F)=C(F)C(=O)C(F)=C1F ) 8.35% (inactive)

# get_value(readout='growth inhibition', item= C=CC1CN2CCC1CC2C(O)c1ccnc2ccccc12 (stereo unspecified) ) 5.95% (inactive)

----------
assay: NCI Yeast Anticancer Drug Screen. Data for the mlh1 rad18 strain (AID 175); conditions: S. cerevisiae mlh1 rad18 strain growth inhibition; at 50.0 µM; stronger effect = higher value
About 79,000 compounds went through this panel and 15% of them were active in at least one assay; those are over-represented in the sample as a whole.
TEST READOUT: growth inhibition (%)
# number only, unit % dropped from output

Sample answers from the record:
1. CCCCCCCCCCOP(OCCCCCCCCCC)Oc1ccccc1 = 7.45
2. CCCC(=O)[O-].CCCC(=O)[O-].N.N.N.N.[Co+3].[O-][Cl+3]([O-])([O-])[O-] = -12.6
3. CCC[As](=O)(O)c1ccc(Cl)cc1 = 99.2

# get_value(readout='growth inhibition', item= C=[CH][Sn]([CH]=C)([c]1ccccc1)[c]1ccccc1 ) 12.3

# get_value(readout='growth inhibition', item= Clc1cccc(Cl)c1C(Cl)Cl ) -11.2

# get_value(readout='growth inhibition', item= OC(c1ccc2ccccc2n1)C1CCCCN1 (stereo unspecified) ) 11.1

# get_value(readout='growth inhibition', item= O=C(N/N=C/c1cc(Cl)cc(Cl)c1[O-])c1ccccc1O.O=C(N/N=C/c1cc(Cl)cc(Cl)c1[O-])c1ccccc1O.[Ni+2] ) -17.1

# get_value(readout='growth inhibition', item= [Cl][Co][Br].[NH-]CC[NH-].[NH-]CC[NH-] ) 21.2

# get_value(readout='growth inhibition', item= O=C(c1ccccc1)c1ccc2n[se]nc2c1 ) 25.5

# get_value(readout='growth inhibition', item= CC1=C2C(=O)C(C)(C)C=C2C(=O)[C@](C)(O)C12CC2 ) 5.4

# get_value(readout='growth inhibition', item= CC[CH2][Sn]([Br])([CH2]CC(=O)OC)[CH2]CC(=O)OC ) 12.1
